Literature survey of Ki (system: Adenosine receptor A3 (Homo sapiens, UniProt P0DMS8)).

Before answering, review these 2 worked examples.
>>> result("Cn1c(=O)c2c(nc3n2CCN(c2cccc(Cl)c2)C3)n(C)c1=O")
"> 10 µM"
>>> result("CCCCn1c(=O)[nH]c2nc(-c3cnn(Cc4cccc(C(F)(F)F)c4)c3)[nH]c2c1=O")
"> 9 µM"

Item: `O=c1ccc(Nc2ncc(-c3ccncn3)c(-c3ccco3)n2)c[nH]1` | Ki: > 1 µM

Noted for `COc1ccc(C(=O)Nc2nc(-c3ccccc3)c(C(=O)c3ccc(C)cc3)s2)cc1` : its Ki reads > 1 µM

---

Protein target, amino acids: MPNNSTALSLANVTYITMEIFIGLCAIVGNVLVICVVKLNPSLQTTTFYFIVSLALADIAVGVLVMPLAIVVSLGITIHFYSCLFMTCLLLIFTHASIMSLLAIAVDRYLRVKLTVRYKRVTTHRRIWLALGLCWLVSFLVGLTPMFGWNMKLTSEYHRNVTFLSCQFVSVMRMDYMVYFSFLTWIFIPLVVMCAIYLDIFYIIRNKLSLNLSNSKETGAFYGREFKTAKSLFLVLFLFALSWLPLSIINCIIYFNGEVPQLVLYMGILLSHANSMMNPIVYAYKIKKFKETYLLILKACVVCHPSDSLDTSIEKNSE
pKi: −log10 of the molar value.
// read-out pKi, gathered for the protein given by its sequence from published studies

Reference set (3 entries):
>>> result("CCCn1c(=O)c2nc(-c3cnn(Cc4cc(-c5cccc(OC)c5)on4)c3)[nH]c2n(CCC)c1=O")
"< 5.30"
>>> result("O=c1c(-c2ccco2)nnc2n(-c3ccccc3)c3ccccc3n12")
"< 6.00"
>>> result("CCOC(=O)c1ccc(C(=O)Nc2ccc(-c3cn4c(=O)n(-c5ccccc5)nc4c(N)n3)cc2)cc1")
"< 4.52"

Value (pKi, the protein given by its sequence) for record `Nc1ncnc2nc(Br)[nH]c12` = < 5.00

`CCNC(=O)[C@H]1O[C@@H](n2cnc3c(NNC(=O)c4ccccc4)ncnc32)[C@H](O)[C@@H]1O` on the protein given by its sequence gives pKi = < 5.30

// returns pKi for `CCCOC(=O)c1c(-c2cccc(F)c2)nc(CC)c(C(=O)SCC)c1CCC` with the protein given by its sequence; value = 7.54

Entry `CCCn1c(=O)c2nc(-c3ccc(N)cc3)[nH]c2n(CCC)c1=O` , tested on the protein given by its sequence, has a reported pKi of < 6.00

the protein given by its sequence assay, compound `COc1ccc(OC)c(-c2cc(NC(C)=O)nc(-c3cc(OC)ccc3OC)c2)c1` , recorded pKi = 7.45

Reading of pKi for `Nc1nc(-c2ccco2)c2cnn(CCc3ccc(C(=O)Nc4ccccc4N)cc3)c2n1` with the protein given by its sequence: < 5.00

Tested on the protein given by its sequence, the item `Clc1ccc(Nc2nc3c(N4CCOCC4)ncnc3s2)cc1` showed pKi equal to < 4.00

Reading of pKi for `CCCn1c(=O)c2[nH]c(-c3cc(C)n(CC(=O)Nc4ccc(C)cc4)n3)nc2n(CCC)c1=O` with the protein given by its sequence: < 6.00

`Cn1c(=O)c2c(nc3n2CCN(CCc2ccc4c(c2)OCO4)C3)n(C)c1=O` tested on the protein given by its sequence gave pKi: < 5.52
